Reference source for all entries: patent US6207669A

System: HN5-head and neck tumour cell line
Assay: Cell proliferation assay, HN5
Type: cell-based
Settings: Homo sapiens, 96 h, read-out: Cell Proliferation HN5 IC50
Where a name gives a salt, the structure may show the parent alone.
Below: a set of entries, each annotated with reported IC50.

Molecule	Unit Symbol	IC50
NC(=O)[C@H]1CCCN1Cc1ccc(-c2cc3c(Nc4ccc(OCc5ccccc5)cc4)ncnc3cn2)o1 [Example 13, hydrochloride]	nM	350
CN(CC(N)=O)Cc1ccc(-c2cc3c(Nc4ccc(OCc5ccccc5)cc4)ncnc3cn2)o1	nM	350
OCc1ccc(-c2cc3c(Nc4ccc(OCc5ccccc5)cc4)ncnc3cn2)o1 [Example 12, hydrochloride]	nM	460

----------
Target: c-erbB-2 (baculovirus expressed, recombinant intracellular domain) (Homo sapiens, UniProt P04626)
Construct: recombinant constructs of the intracellular domains of c-erbB-2 and c-erbB4 that are constitutively active
Sequence (P04626 676-1255 limits assumed): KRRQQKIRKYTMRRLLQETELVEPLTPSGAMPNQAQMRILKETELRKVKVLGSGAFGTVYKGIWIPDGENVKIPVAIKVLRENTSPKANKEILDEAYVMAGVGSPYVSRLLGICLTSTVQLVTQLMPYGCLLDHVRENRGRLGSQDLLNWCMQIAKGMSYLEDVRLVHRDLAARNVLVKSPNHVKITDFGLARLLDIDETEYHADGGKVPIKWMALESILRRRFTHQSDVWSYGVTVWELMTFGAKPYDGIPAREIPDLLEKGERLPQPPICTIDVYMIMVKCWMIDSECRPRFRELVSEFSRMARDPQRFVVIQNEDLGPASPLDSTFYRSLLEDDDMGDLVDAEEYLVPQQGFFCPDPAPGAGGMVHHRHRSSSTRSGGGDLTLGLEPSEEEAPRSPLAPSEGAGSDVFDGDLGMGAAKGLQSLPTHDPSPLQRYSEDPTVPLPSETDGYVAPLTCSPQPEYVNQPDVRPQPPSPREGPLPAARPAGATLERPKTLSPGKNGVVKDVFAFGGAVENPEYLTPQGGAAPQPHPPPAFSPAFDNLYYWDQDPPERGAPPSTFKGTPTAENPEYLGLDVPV
Experiment: Substrate phosphorylation assay, c-erbB-2
Details: 30 minutes, room temperature, ATP and peptide at Km
pIC50: −log10 of the molar value. Structures can show the parent of a compound that is named as a salt.
The following compounds are shown together with reported pIC50 values.
Endpoint Label: pIC50

Compound	Endpoint Label	Quantitative Result
CN(C)C(=O)[C@@H]1CCCN1Cc1ccc(-c2cc3c(Nc4ccc(OCc5ccccc5)cc4)ncnc3cn2)o1	pIC50	6.55
CN(C)Cc1ccc(-c2cc3c(Nc4ccc(OCc5ccccc5)cc4)ncnc3cn2)o1 [Example 6, hydrochloride]	pIC50	7.01
CS(=O)(=O)NCCNCc1ccc(-c2cc3c(Nc4ccc(OCc5ccccc5)cc4)ncnc3cn2)o1 [Example 17, hydrochloride]	pIC50	7.54
CC(=O)NCCNCc1ccc(-c2cc3c(Nc4ccc(OCc5ccccc5)cc4)ncnc3cn2)o1	pIC50	8.15
CN(CC(N)=O)Cc1ccc(-c2cc3c(Nc4ccc(OCc5ccccc5)cc4)ncnc3cn2)o1	pIC50	7.96
COC(=O)CNCc1ccc(-c2cc3c(Nc4ccc(OCc5ccccc5)cc4)ncnc3cn2)o1 [Example 4, hydrochloride]	pIC50	7.89
NC(=O)[C@H]1CCCN1Cc1ccc(-c2cc3c(Nc4ccc(OCc5ccccc5)cc4)ncnc3cn2)o1 [Example 13, hydrochloride]	pIC50	7.85
NC(=O)[C@@H]1CCCN1Cc1ccc(-c2cc3c(Nc4ccc(OCc5ccccc5)cc4)ncnc3cn2)o1 [Example 7, hydrochloride]	pIC50	7.36
CN(CCS(C)(=O)=O)Cc1ccc(-c2cc3c(Nc4ccc(OCc5ccccc5)cc4)ncnc3cn2)o1	pIC50	7.52
CN1CCN(Cc2ccc(-c3cc4c(Nc5ccc(OCc6ccccc6)cc5)ncnc4cn3)o2)CC1	pIC50	7.22
O=C(O)CNCc1ccc(-c2cc3c(Nc4ccc(OCc5ccccc5)cc4)ncnc3cn2)o1 [Example 11, hydrochloride]	pIC50	7.72
OCc1ccc(-c2cc3c(Nc4ccc(OCc5ccccc5)cc4)ncnc3cn2)o1 [Example 12, hydrochloride]	pIC50	8.40
CS(=O)(=O)CCCNCc1ccc(-c2cc3c(Nc4ccc(OCc5ccccc5)cc4)ncnc3cn2)o1	pIC50	6.38
CS(=O)(=O)CCNCc1ccc(-c2cc3c(Nc4ccc(OCc5ccccc5)cc4)ncnc3cn2)o1 [Example 3, hydrochloride]	pIC50	8.00
c1ccc(COc2ccc(Nc3ncnc4cnc(-c5ccc(CN6CCCCC6)o5)cc34)cc2)cc1 [Example 1, hydrochloride]	pIC50	7.15
C[S+]([O-])CCNCc1ccc(-c2cc3c(Nc4ccc(OCc5ccccc5)cc4)ncnc3cn2)o1 (centres unmarked)	pIC50	7.66
c1ccc(COc2ccc(Nc3ncnc4cnc(-c5ccc(CNc6cccnc6)o5)cc34)cc2)cc1	pIC50	6.96
